# Protocol text: Clearance in human liver microsomes assessed as drug turnover level at 1 uM incubated for 30 mins in presence of NADPH
# Format: ADME, Microsome
# Experimental conditions: read-out: CLH
Property name: microsomal CLint at 1 µM (µL/min/mg)
Answers are plain numbers, in µL/min/mg.

Worked examples, 3 compounds total:
> print(dat)
                                   compound             property.name          u  measurement
1  C[C@H](Nc1ncnc(N)c1C#N)c1nc2ccc(F)cc2c(C(=O)N(C)C)c1-c1ccccc1  microsomal CLint at 1 µM  µL/min/mg          198
2  CC(Nc1ncnc(N)c1C#N)c1nc2ccc(F)cc2c(C(=O)N2CCNCC2)c1-c1ccccn1 (racemic)  microsomal CLint at 1 µM  µL/min/mg           24
3  C[C@H](Nc1ncnc(N)c1C#N)c1nc2ccc(F)cc2c(C(=O)N2CCNCC2)c1-c1ccccc1  microsomal CLint at 1 µM  µL/min/mg           82

Look at each compound and report its microsomal CLint at 1 µM.
1. CC(C)NC(=O)c1c(-c2ccccc2)c([C@H](C)Nc2ncnc(N)c2C#N)nc2ccc(F)cc12
2. CNCCNC(=O)c1c(-c2ccccn2)c([C@H](C)Nc2ncnc(N)c2C#N)nc2ccc(F)cc12

[51, 33]
